system: Liver; experiment: Induction of membrane hyperpolarization in rat liver mitochondria assessed as change in repolarization potential at 2.5 uM; type: functional

lineNotation | Activity / mV
CS(=O)(=O)[O-].O=C(/C=C/c1cc(O)c(O)c(O)c1)NCCCCCCCCCC[P+](c1ccccc1)(c1ccccc1)c1ccccc1 | 25
CS(=O)(=O)[O-].O=C(/C=C/c1cc(O)c(O)c(O)c1)NCCCCCCCC[P+](c1ccccc1)(c1ccccc1)c1ccccc1 | 25
CS(=O)(=O)[O-].O=C(/C=C/c1ccc(O)c(O)c1)NCCCCCCCCCC[P+](c1ccccc1)(c1ccccc1)c1ccccc1 | 10
CS(=O)(=O)[O-].O=C(/C=C/c1ccc(O)c(O)c1)NCCCCCCCC[P+](c1ccccc1)(c1ccccc1)c1ccccc1 | 10

Data origin: ChEMBL document CHEMBL4038331
